Assay: in vitro
Conditions: human, fresh human red blood cells (washed), pH 7.4
Non-standard residues stand in square brackets, D forms with d. Residues, ends and D or L forms follow the SMILES beside them. d2Nal = N[C@H](Cc1ccc2ccccc2c1)C(=O)O
Overview of recorded HC50 at 0.5 h for various compounds
Quick note: give the figure in µg/mL, leave out the unit.

Below, 2 compounds whose answers are already recorded.
{"COMPOUND": "N=C(N)NCCC[C@@H]1NC(=O)[C@H](CCCNC(=N)N)NC(=O)[C@@H](Cc2ccc3ccccc3c2)NC(=O)[C@@H](Cc2ccc3ccccc3c2)NC(=O)[C@H](Cc2c[nH]c3ccccc23)NC(=O)[C@@H](CCCNC(=N)N)NC(=O)[C@@H](CCCNC(=N)N)NC(=O)[C@H](CCCNC(=N)N)NC1=O [IFX-125, c[Arg-Arg-Arg-arg-arg-Trp-naI-naI]] (cyclo(RRR[dR][dR]W[d2Nal][d2Nal]))", "MEASURED_QUANTITY": "HC50 at 0.5 h", "MEASUREMENT_UNITS": "µg/mL", "NUMERIC_RESULT": 485}
{"COMPOUND": "N=C(N)NCCC[C@@H](N)C(=O)N[C@@H](CCCNC(=N)N)C(=O)N[C@H](CCCNC(=N)N)C(=O)N[C@@H](CCCNC(=N)N)C(=O)N[C@@H](Cc1c[nH]c2ccccc12)C(=O)N[C@H](Cc1ccc2ccccc2c1)C(=O)N[C@H](Cc1ccc2ccccc2c1)C(=O)O [IFX-110-1] (H-[dR]R[dR]RW[d2Nal][d2Nal]-OH)", "MEASURED_QUANTITY": "HC50 at 0.5 h", "MEASUREMENT_UNITS": "µg/mL", "NUMERIC_RESULT": 330}

Then this compound:
So what's the measured HC50 at 0.5 h for this one? N=C(N)NCCC[C@@H]1NC(=O)[C@H](CCCNC(=N)N)NC(=O)[C@@H](CCCNC(=N)N)NC(=O)[C@@H](CCCNC(=N)N)NC(=O)[C@@H](Cc2ccc3ccccc3c2)NC(=O)[C@@H](Cc2ccc3ccccc3c2)NC(=O)[C@H](Cc2c[nH]c3ccccc23)NC1=O [IFX-117, c[arg-arg-Arg-Arg-Trp-naI-naI]] (cyclo([dR][dR]RRW[d2Nal][d2Nal]))
190
